- System: HT29 colon
- assay.text: NCI-60 one-dose screen, 48 h (100 = growth as untreated, 0 = no growth, -100 = all killed)
- assay.context: 10 µM unless noted
- Protocol: Growth inhibition of the HT29 human tumor cell line is measured as a screen for anti-cancer activity. Cells are grown in 96 well plates and exposed to the test compound for 48 hours. Compounds are tested at a single concentration, which is 10^-5 M for most compounds. The reported endpoint is percent growth (GI% or GIPRCNT), where numbers from 0 - 100% represent growth inhibition, and numbers from -100% - 0 represent cell death. For example, a value of 40 represents 60% growth inhibition. […]
Compounds without any hit were thinned out: in the full panel of roughly 83,000, 20% have a hit.
Lab note: compare growth with 20%, writing criterion met if less and criterion not met if equal or more.

>  <smiles.entry>
N#C/C(=C\c1c(-c2ccccc2)[nH]c2ccccc12)S(=O)(=O)c1ccccc1

>  <target.of.assay>
HT29 colon

>  <class.label>
criterion met

$$$$
>  <smiles.entry>
c1ccc2c(c1)oc1cc3sccc3nc12

>  <target.of.assay>
HT29 colon

>  <class.label>
criterion not met

$$$$

Record Cc1cccc2c(=O)c3c(sc12)c(N1CCNCC1)nc1ccccc13 : is its growth strictly below 20%?
criterion met

Does the reported growth of O=C(Nc1ccc(Cl)cc1F)c1cc(F)ccc1O stay below 20%?
criterion met

Does the reported growth of CCOC(=O)c1cc2c(n1Cc1ccccc1)-c1oncc1CCC2 stay below 20%?
criterion not met

Threshold test, growth < 20%: Cc1ccc2[nH]c(=O)cc(-n3nncc3Cn3c4ccccc4c4ccccc43)c2c1
criterion not met

====

- Test system: UO-31 renal
- assay.text: NCI-60 one-dose screen, 48 h
- assay.context: 10 µM unless noted
This is part of a sample that, as a whole, favours compounds with a hit. Of some 83,000 tested, about 20% had one in any assay. Activity calls are given as the source filed them. How the source made its calls: active means growth percent below 10; inactive means the rest.
Respond using exactly one of the listed classes: T for active, F for inactive

A selection of reference data follows.
>  <compound>
COc1cc(C2C3=C(COC3=O)N(CCO)c3cc4c(cc32)OCCO4)cc(OC)c1O (centres undefined)

>  <class.label>
F

$$$$
>  <compound>
COc1ccc(C2NCCc3c2[nH]c2ccccc32)cc1CN1CCN(c2ccc(F)cc2)CC1 (centres undefined)

>  <class.label>
T

$$$$
>  <compound>
O=C(CCN1C(=O)c2ccccc2C1=O)Nc1ccc(Cl)cc1

>  <class.label>
F

$$$$

Query: recorded result category for O=C(NCc1ccccc1)C1CN(c2ccc(Cl)cc2)N(c2ccc(Cl)cc2)C1=O (centres undefined) in this test
F

Please state the recorded outcome for this compound: Nc1ccc(-c2ccc(-c3ccccc3N)c3[nH]c4ccccc4c23)cc1
F

Hello, I am checking results. What call was entered for O=C(O)c1cn(C2CC2)c2cc(N3CCN(C(=O)C[n+]4ccccc4)CC3)c(F)cc2c1=O ?
F

For O=C(O)CCC(=O)c1ccc(C2CCCCCC2)cc1 , which call appears in the assay record?
F

Please indicate how the test categorized O=C(/C=C/c1cccc(Cl)c1)OCc1ccc2cc1OCC#C/C=C\C#CCO2 .
F

Could you check what this test reported for COc1ccc(C(=O)Nc2ccc3nc(N4CCCCC4)cc(C)c3c2)cc1OC ?
F

====

- Test system: MDA-MB-231 breast
- assay.text: NCI-60 one-dose screen, 48 h
- assay.context: 10 µM unless noted
- Description: Cells are grown in 96 well plates and exposed to the test compound for 48 hours. Compounds are tested at a single concentration, which is 10^-5 M for most compounds. The reported endpoint is percent growth (GI% or GIPRCNT), where numbers from 0 - 100% represent growth inhibition, and numbers from -100% - 0 represent cell death. For example, a value of 40 represents 60% growth inhibition. A value of 0 means no net growth occurred over the course of the experiment. […]
Compounds without any hit were thinned out: in the full panel of roughly 83,000, 20% have a hit. Active and inactive are the calls of the source. How the source made its calls: active means growth percent below 10; inactive means the rest.
Field 'call' accepts active, inactive

Solved cases (2 shown):
>  <compound>
O=C(CCc1nnc2sc(-c3ccc(Cl)cc3Cl)nn12)c1nc2ncccc2[nH]1

>  <class.label>
active

$$$$
>  <compound>
O=C(/C=C/c1ccccc1)c1ccc(Nc2nc(NCCO)nc(Nc3ccc(Cl)cc3)n2)cc1

>  <class.label>
inactive

$$$$

# lookup: test call for O=C1c2cc(Cl)ccc2Oc2cc([N+](=O)[O-])ccc2N1c1ccc(F)cc1F
inactive

Test call, this compound: CCN1C(=O)N(CC)C2C1NC(=S)N2/N=C/C=C/c1ccccc1OC (stereo unspecified)
inactive

Which outcome was entered for the compound O=c1oc2ccc(Br)cc2c(=O)n1-c1ccc(I)cc1F in this test?
active

Can you look up the reported call for COc1cc2nc(NC3CCC3)nc(NC3CCN(C(C)C)CC3)c2cc1OC for me?
active

Field: outcome | Entry: O=c1oc2ccc(F)cc2c(=O)n1-c1ccc(Br)cc1F
active

Hi, do you know how Nc1ccc(-c2nc3cc(Oc4ccc(Oc5ccc6[nH]c(-c7ccc(N)cc7)nc6c5)cc4)ccc3[nH]2)cc1 came out in this test?
inactive

Check the results log: what was the call for COc1cccc(C2=NN3C(C2)c2ccccc2OC3c2ccc(/C=C3\SC(=O)NC3=O)cc2)c1 (stereo unspecified) ?
inactive

Assay result, entry CC1=NCC2NC(=O)NC(C)=C12 (stereo unspecified) — outcome?
inactive

Record request — test call for O=C(Nc1ccc(N2CCNCC2)cn1)c1[nH]ncc1Nc1ncnc2sccc12
active
